Target: CaV2.2 (Homo sapiens)
Sequence (Q00975 whole entry): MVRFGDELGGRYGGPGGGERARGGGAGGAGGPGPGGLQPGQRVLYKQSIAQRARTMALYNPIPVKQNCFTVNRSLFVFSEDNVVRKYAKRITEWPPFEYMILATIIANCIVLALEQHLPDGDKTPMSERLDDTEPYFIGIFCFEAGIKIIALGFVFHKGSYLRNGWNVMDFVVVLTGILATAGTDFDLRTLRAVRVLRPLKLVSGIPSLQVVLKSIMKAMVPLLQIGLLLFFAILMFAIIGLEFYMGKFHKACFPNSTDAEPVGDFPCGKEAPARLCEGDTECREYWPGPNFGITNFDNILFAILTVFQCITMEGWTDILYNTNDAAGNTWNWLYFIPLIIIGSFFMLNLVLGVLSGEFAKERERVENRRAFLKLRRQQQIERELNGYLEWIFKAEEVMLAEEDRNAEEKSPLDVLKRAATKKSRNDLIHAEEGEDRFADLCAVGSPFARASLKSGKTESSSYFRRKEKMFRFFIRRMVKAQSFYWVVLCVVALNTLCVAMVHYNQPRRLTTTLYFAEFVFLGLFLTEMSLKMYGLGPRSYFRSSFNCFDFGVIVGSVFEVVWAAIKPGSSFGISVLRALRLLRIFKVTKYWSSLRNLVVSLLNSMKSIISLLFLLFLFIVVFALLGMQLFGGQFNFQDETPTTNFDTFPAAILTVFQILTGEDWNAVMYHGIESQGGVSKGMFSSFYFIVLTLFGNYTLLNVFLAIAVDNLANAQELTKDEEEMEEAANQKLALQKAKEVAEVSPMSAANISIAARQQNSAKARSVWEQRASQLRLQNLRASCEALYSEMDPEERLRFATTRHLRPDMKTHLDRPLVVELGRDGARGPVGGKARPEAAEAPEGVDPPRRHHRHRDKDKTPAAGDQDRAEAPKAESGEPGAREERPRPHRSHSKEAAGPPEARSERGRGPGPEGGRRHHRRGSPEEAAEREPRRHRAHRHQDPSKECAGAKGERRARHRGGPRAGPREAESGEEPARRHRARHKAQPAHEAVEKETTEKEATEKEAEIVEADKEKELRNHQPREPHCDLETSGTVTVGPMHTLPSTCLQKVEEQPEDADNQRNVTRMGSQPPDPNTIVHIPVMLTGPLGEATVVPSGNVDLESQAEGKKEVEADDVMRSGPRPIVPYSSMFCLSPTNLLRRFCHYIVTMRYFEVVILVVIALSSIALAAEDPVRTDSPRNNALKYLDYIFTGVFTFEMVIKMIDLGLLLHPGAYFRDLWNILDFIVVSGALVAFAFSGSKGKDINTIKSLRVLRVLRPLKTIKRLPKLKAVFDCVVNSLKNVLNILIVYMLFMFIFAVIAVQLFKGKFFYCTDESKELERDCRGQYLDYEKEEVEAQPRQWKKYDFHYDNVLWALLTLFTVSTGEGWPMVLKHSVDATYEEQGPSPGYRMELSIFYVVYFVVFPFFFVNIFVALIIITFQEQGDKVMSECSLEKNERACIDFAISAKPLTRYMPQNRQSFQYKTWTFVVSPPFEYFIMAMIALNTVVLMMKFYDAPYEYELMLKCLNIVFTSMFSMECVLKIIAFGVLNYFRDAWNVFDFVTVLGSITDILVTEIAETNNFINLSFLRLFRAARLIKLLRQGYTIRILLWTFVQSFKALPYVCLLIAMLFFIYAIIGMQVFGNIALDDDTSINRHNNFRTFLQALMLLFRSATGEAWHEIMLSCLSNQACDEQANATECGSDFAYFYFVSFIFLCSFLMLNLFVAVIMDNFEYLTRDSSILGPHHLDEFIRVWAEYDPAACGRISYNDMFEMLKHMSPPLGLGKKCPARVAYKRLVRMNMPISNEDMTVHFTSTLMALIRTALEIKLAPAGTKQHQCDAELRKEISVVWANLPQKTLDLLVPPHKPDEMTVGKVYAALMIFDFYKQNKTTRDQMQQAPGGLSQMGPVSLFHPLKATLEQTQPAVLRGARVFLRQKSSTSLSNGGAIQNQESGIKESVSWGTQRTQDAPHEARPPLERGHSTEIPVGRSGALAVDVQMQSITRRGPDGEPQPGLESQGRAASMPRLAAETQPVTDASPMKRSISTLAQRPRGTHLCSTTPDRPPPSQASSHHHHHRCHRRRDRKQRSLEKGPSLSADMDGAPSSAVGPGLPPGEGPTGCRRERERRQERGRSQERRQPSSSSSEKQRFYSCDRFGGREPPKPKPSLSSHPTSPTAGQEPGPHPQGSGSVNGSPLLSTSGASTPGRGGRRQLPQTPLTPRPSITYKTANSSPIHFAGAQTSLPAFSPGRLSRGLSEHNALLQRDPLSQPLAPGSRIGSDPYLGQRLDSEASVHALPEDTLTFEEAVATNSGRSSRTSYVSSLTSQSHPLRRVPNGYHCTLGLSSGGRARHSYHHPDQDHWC
Sequence (P54284 whole entry partner): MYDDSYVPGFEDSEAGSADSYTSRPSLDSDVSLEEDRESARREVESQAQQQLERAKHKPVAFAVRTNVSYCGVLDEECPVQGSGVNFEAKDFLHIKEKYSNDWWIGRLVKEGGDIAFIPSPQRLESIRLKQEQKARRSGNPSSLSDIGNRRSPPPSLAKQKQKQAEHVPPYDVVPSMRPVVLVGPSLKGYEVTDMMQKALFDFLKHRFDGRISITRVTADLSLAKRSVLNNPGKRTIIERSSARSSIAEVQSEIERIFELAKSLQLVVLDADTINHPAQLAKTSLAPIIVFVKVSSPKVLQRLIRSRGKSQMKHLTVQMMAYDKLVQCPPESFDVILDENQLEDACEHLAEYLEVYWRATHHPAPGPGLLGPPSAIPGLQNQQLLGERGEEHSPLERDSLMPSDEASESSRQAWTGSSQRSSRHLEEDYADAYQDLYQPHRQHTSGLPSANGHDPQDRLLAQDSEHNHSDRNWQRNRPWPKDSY
Sequence (P54289 25-956 partner limits assumed): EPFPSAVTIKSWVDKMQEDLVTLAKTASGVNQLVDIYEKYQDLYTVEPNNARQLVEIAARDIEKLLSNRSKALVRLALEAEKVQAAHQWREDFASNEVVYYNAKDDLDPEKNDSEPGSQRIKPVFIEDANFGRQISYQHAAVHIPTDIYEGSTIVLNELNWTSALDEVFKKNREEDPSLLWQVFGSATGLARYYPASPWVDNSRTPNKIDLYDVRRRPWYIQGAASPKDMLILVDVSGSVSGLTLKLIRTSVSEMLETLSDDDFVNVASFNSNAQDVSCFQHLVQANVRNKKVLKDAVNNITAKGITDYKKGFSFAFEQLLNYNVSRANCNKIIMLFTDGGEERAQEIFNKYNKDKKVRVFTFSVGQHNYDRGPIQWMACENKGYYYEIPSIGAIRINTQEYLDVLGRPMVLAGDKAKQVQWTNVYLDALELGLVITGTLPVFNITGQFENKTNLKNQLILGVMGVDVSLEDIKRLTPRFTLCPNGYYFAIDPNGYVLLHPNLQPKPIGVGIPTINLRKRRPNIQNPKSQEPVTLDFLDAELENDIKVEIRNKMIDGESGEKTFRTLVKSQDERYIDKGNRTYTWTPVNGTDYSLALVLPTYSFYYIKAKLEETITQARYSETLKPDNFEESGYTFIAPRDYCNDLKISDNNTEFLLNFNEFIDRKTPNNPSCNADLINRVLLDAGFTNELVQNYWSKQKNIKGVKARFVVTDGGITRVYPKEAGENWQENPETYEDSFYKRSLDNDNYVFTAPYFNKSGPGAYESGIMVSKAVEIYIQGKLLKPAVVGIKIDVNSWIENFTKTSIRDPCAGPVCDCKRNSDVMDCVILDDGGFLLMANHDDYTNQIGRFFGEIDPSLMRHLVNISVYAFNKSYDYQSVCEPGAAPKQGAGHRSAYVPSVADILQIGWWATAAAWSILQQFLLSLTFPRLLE
Sequence (P54289 957-1103 partner limits assumed): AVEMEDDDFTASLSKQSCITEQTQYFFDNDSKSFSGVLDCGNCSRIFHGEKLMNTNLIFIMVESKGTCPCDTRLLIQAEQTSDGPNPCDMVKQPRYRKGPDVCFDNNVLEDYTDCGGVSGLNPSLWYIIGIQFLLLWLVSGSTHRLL
Assay: VIPR optical membrane potential assay with electrical stimulation, CaV2.2
Conditions: Table 9, CaV 2.2 receptors
METRIC_NAME: IC50

Example entries begin here.
- COMPOUND: "COCCCNc1ncc(C(=O)NCC2CC2)c(-c2ccc(C#N)cc2)n1 [compound 231]"
  SYSTEM_TESTED: "CaV2.2 (Homo sapiens)"
  RESULT: "> 10 µM"
- COMPOUND: "COc1cccc(N(C(=O)c2cnc(N3CCC4CCCCC4C3)nc2-c2ccccc2F)C2CCCC2)c1 (stereo not drawn) [compound 154]"
  SYSTEM_TESTED: "CaV2.2 (Homo sapiens)"
  RESULT: "2 to 10 µM"
- COMPOUND: "CC(C)N(Cc1ccccc1)C(=O)c1cnc(Nc2ccc(F)cc2)nc1-c1ccccc1F [compound 181]"
  SYSTEM_TESTED: "CaV2.2 (Homo sapiens)"
  RESULT: "> 10 µM"
- COMPOUND: "O=C(c1cnc(N2CCOCC2)nc1-c1ccccc1F)N1CCCCC1 [compound 323]"
  SYSTEM_TESTED: "CaV2.2 (Homo sapiens)"
  RESULT: "> 10 µM"
- COMPOUND: "CCN(Cc1ccccc1)C(=O)c1cnc(N2CCOCC2)nc1-c1cccc(C)c1 [compound 243]"
  SYSTEM_TESTED: "CaV2.2 (Homo sapiens)"
  RESULT: "> 10 µM"

Please turn your attention to the following entry.
Incoming: Which IC50 value is on record for CCN(C)C(=O)c1cnc(NCCc2ccc(OC)cc2)nc1-c1cccc(C)c1 [compound 234] ?
Outgoing: > 10 µM

----------
Target: CaV2.2 (Homo sapiens)
Test: VIPR optical membrane potential assay with electrical stimulation, CaV2.2
Details: Table 9, CaV 2.2 receptors
Method: A. Optical Methods for Assaying CaV Inhibition Properties of Compounds: Antagonist properties of test compounds were assessed as follows. Cells expressing the CaV of interest were placed into microtiter plates. […] The cells were stimulated with electrical means to evoke a CaV dependent membrane potential change from unblocked channels, which was detected and measured with trans-membrane potential-sensitive dyes. Antagonists were detected as a decreased membrane potential response to the stimulus. […]
METRIC_NAME: IC50

Example entries begin here.
- MOLECULE: "CN(CCc1ccccc1)C(=O)c1cnc(N2CCOCC2)nc1-c1ccccc1F [compound 199]"
  RESULT: "> 10 µM"
- MOLECULE: "N#CCCN(Cc1ccccc1)C(=O)c1cnc(N2CCOCC2)nc1-c1ccccc1F [compound 75]"
  RESULT: "> 10 µM"
- MOLECULE: "Cc1cccc(-c2nc(NCc3cccc(Cl)c3)ncc2C(=O)N(C)CC(C)C)c1 [compound 235]"
  RESULT: "> 10 µM"
- MOLECULE: "O=C(c1cnc(N2CCSCC2)nc1-c1ccccc1F)N(Cc1ccccc1)C1CC1 [compound 109]"
  RESULT: "2 to 10 µM"

Please turn your attention to the following entry.
Incoming: Which IC50 value is on record for CC(C)N(Cc1ccccc1)C(=O)c1cnc(N2CCCCC2)nc1-c1ccccc1F [compound 117] ?
Outgoing: < 2 µM

----------
Target: NaV1.3 (Homo sapiens, UniProt Q9NY46)
Construct: expressed in transfected cells; host or cells: HEK293
Experiment: VIPR optical membrane potential assay with electrical stimulation, NaV1.3
Assay type: cell-based
Conditions: Table 9, NaV 1.3 receptors
pIC50: −log10 of the molar value.
Each entry below lists one item and its recorded pIC50 value.

- COMPOUND: "COCCCNC(=O)c1cnc(N2CCN(C(C)=O)CC2)nc1-c1cccc(C)c1 [compound 339]"
  pIC50: "< 5.00"
- COMPOUND: "COc1cccc(N(C(=O)c2cnc(N3CCCCC3)nc2-c2ccccc2F)C(C)C)c1 [compound 133]"
  pIC50: "5.00 to 5.70"
- COMPOUND: "CC(=O)N1CCN(c2ncc(C(=O)N3CCCCC3)c(-c3ccc(C#N)cc3)n2)CC1 [compound 267]"
  pIC50: "< 5.00"

Please turn your attention to the following entry.
Incoming: Which pIC50 value is on record for CCN(CCC#N)c1ncc(C(=O)N(Cc2ccccc2)C(C)C)c(-c2ccccc2F)n1 [compound 96] ?
Outgoing: 5.00 to 5.70

----------
Target: NaV1.3 (Homo sapiens)
Construct: expressed in transfected cells; host or cells: HEK293
Assay: VIPR optical membrane potential assay with electrical stimulation, NaV1.3
Assay type: cell-based
Conditions: Table 9, NaV 1.3 receptors
pIC50: −log10 of the molar value.
METRIC_NAME: pIC50

- STRUCTURE_NOTATION: "CC(C)N(Cc1ccc(C(C)(C)C)cc1)C(=O)c1cnc(N2CCCCC2)nc1-c1ccccc1F"
  pIC50: "< 5.00"

Incoming: Record `Cc1cccc(CN(C(=O)c2c(C)nc(N3CCOCC3)nc2-c2ccccc2F)C2CC2)c1` : what is its pIC50 with NaV1.3 (Homo sapiens)?
Outgoing: 5.00 to 5.70

Incoming: Subsequent entry: `CC(C)N(C(=O)c1cnc(N2CCCCC2)nc1-c1ccccc1F)c1cccc(O)c1`
Outgoing: < 5.00

Incoming: Subsequent entry: `COc1cccc(N(C(=O)c2cnc(N3CCOCC3)nc2-c2ccccc2F)C(C)C)c1`
Outgoing: < 5.00

Incoming: Subsequent entry: `COc1ccc(CN(C(=O)c2cnc(N3CCN(C)CC3)nc2-c2ccccc2F)C2CC2)cc1`
Outgoing: < 5.00

----------
Target: NaV1.3 (Homo sapiens, UniProt Q9NY46)
Construct: expressed in transfected cells; host or cells: HEK293
Assay: VIPR optical membrane potential assay with electrical stimulation, NaV1.3
Format: cell-based
Settings: Table 9, NaV 1.3 receptors
METRIC_NAME: IC50

Example entries begin here.
- COMPOUND: "COc1cccc(N(C(=O)c2cnc(N3CCC4CCCCC4C3)nc2-c2ccccc2F)C2CCOCC2)c1 (stereo not drawn)"
  IC50: "> 10 µM"
- COMPOUND: "O=C(c1cnc(N2CCOCC2)nc1-c1ccccc1F)N(Cc1ccncc1)C1CC1"
  IC50: "> 10 µM"

Please turn your attention to the following entry.
Incoming: Which IC50 value is on record for `Cc1nc(N2CCCCC2)nc(-c2ccccc2F)c1C(=O)N(Cc1ccc(C(C)(C)C)cc1)C(C)C` ?
Outgoing: 2 to 10 µM

----------
Biological target: NaV1.3 (Homo sapiens)
Construct: expressed in transfected cells; host or cells: HEK293
Assay: VIPR optical membrane potential assay with electrical stimulation, NaV1.3
Assay type: cell-based
Conditions: Table 9, NaV 1.3 receptors
METRIC_NAME: IC50

Example entries begin here.
- MOLECULE: "CC(C)N(Cc1ccc2c(c1)OCO2)C(=O)c1cnc(N2CCC3CCCCC3C2)nc1-c1ccccc1F (stereo not shown)"
  IC50: "2 to 10 µM"
- MOLECULE: "O=C(NC1CCCCC1)c1cnc(N2CCOCC2)nc1-c1ccccc1F"
  IC50: "> 10 µM"
- MOLECULE: "CC(=O)Nc1ccc(-c2nc(N3CCOCC3)ncc2C(=O)N(Cc2ccccc2)C(C)C)cc1"
  IC50: "> 10 µM"
- MOLECULE: "COCCNc1ncc(C(=O)N2CCOCC2)c(-c2cccc(C)c2)n1"
  IC50: "> 10 µM"
- MOLECULE: "CC1Cc2ccccc2N1C(=O)c1cnc(N2CCOCC2)nc1-c1ccccc1F (stereo not shown)"
  IC50: "> 10 µM"
- MOLECULE: "CCN(Cc1cccc(C)c1)C(=O)c1cnc(NCC2CC2)nc1-c1ccccc1F"
  IC50: "> 10 µM"
- MOLECULE: "CC(C)Oc1ccc(-c2nc(N3CCOCC3)ncc2C(=O)N(Cc2ccccc2)C(C)C)cc1"
  IC50: "> 10 µM"
- MOLECULE: "COc1cccc(N(C(=O)c2cnc(N3CCCCC3)nc2-c2ccccc2Cl)C2CCC2)c1"
  IC50: "2 to 10 µM"
- MOLECULE: "CCC(C)NC(=O)c1cnc(NCCc2ccc(Cl)cc2)nc1-c1ccccc1F (stereo not shown)"
  IC50: "> 10 µM"
- MOLECULE: "CCN(Cc1cccc(C)c1)C(=O)c1cnc(N(C)CC)nc1-c1ccccc1F"
  IC50: "> 10 µM"

Incoming: Which IC50 value is on record for `COCCNc1ncc(C(=O)N(Cc2ccccc2)C(C)C)c(-c2ccccc2F)n1` ?
Outgoing: > 10 µM

Incoming: Subsequent entry: `COc1cccc(CN(C(=O)c2cnc(N3CCSCC3)nc2-c2ccccc2F)C(C)C)c1`
Outgoing: 2 to 10 µM

Incoming: Subsequent entry: `N#Cc1ccc(-c2nc(NCc3ccccc3C(F)(F)F)ncc2C(=O)NCC2CC2)cc1`
Outgoing: > 10 µM

Incoming: Subsequent entry: CC(C)N(Cc1ccccc1)C(=O)c1cnc(N2CCC3CCCCC3C2)nc1-c1ccccc1F (stereo not shown)
Outgoing: > 10 µM

----------
Target: NaV1.3 (Homo sapiens, UniProt Q9NY46)
Construct: expressed in transfected cells; host or cells: HEK293
Assay: VIPR optical membrane potential assay with electrical stimulation, NaV1.3
Assay type: cell-based
Conditions: Table 9, NaV 1.3 receptors
pIC50: −log10 of the molar value.
METRIC_NAME: pIC50

Incoming: Which pIC50 value is on record for N#CCCN(Cc1ccccc1)C(=O)c1cnc(N2CCOCC2)nc1-c1ccccc1F [compound 75] ?
Outgoing: < 5.00

Incoming: Subsequent entry: N#Cc1ccc(-c2nc(N3CCCC3)ncc2C(=O)NCC2CCCCC2)cc1 [compound 346]
Outgoing: < 5.00
